# Tested on: T1, human PACAP27 (human, C-terminal leucine is amidated; 125I-labelled in Example 10)
# T1 peptide: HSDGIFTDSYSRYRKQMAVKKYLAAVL
# Protocol details: SPR, Ab immobilised
Measured parameter: kon (M⁻¹ s⁻¹)
Answer with a number only, understood to be in M⁻¹ s⁻¹.

Quick note, kon for anti-PACAP antibody Ab13 (antibody, human IgG1, kappa, N297A, V domains shown, full-length rabbit/human chimeric antibody) VH: QSVEESGGRLVTPGTPLTLTCTVSGFSLSSAAMNWVRQAPGKGLEWIGIIDNTAGTYYAPWAKGRFTISKTSSTTVDLKMTSPTTEDTATYFCARGGGEFFIWGPGTLVTVSS VL: AQVLTQTPSSVSAAVGGTVTINCQSSQSVHDGSYLSWYQQKPGQPPNFLIYQASNLASGVPSRFKGSGSGTQFTLTISDLECDDAATYYCAGGYSSNICGFGGGTEVVVKR landed at 540000

Quick note, kon for anti-PACAP antibody Ab12.H (antibody, human IgG1, kappa, N297A, V domains shown, humanized form of Ab12, full length) VH: EVQLVESGGGLVQPGGSLRLSCAASGFSLSSYAMGWVRQAPGKGLEWIGDISTYGTTDYASWVYGRFTISRDNSKNTVYLQMNSLRAEDTAVYFCARDYWLSLWGQGTLVTVSS VL: AAQLTQSPSTLSASVGDRVTITCQSSQSVYDNNALAWYQQKPGKAPKLLIYAASTLASGVPSRFSGSGSGTEFTLTISSLQPDDFATYYCLGGYYDPADNAFGGGTKVEIKR landed at 260000

Quick note, kon for anti-PACAP antibody Ab18 (antibody, human IgG1, kappa, N297A, V domains shown, full-length rabbit/human chimeric antibody) VH: QSVEESGGRLVTPGTPLTLTCTVSGFSLSSAALSWVRQAPGKGLEWIGIIDKGVMSYYASWAKGRFTISKTSSTTVDLKVTSPTTEDTATYFCARGGGEFFIWGQGTLVTVSS VL: AQVLTQTPSSVSAAVGGTVTINCQSSKSVYNNNWLSWYQQKPGQPPKFLIYQASNLASGVPSRFKGSGSGTQFTLTISDLECDDAATYYCAGGYSGNIVGFGGGTEVVVKR landed at 440000
